test system: RARb:RXRa (NR concentration 270 nM, RXRa partner concentration 90 nM); experiment: PBM binding z-score (relative to random genomic background probes); higher = stronger binding; sequences stand for … in GC…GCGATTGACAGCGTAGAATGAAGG
Property: PBM binding z-score; scope: individual sequences

Solved cases below.
>>> print(df.to_string())
                       residue_string                                       tgt   measured_parameter  value_reported
0  TAGCCTAGGTCAGATCGGGCCAGCATACGCTATA  RARb:RXRa (NR concentration 270 nM, RXRa partner concentration 90 nM)  PBM binding z-score            3.09
1  CCTACTGGGCCAGTCAGAGGTCATTGATCATATG  RARb:RXRa (NR concentration 270 nM, RXRa partner concentration 90 nM)  PBM binding z-score            2.92

Task: Fill in: PBM binding z-score of GGAACGAGTGCAAAGTTGATAGCATCTGTCGACG is ___
Result: 0.396

* * *

test system: LXRb:RXRa (NR concentration 270 nM, RXRa partner concentration 90 nM); assay: PBM binding z-score (relative to random genomic background probes); higher = stronger binding; sequences stand for … in GC…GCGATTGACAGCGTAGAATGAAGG
MEASURED_PARAMETER: PBM binding z-score
Answer with a bare number; do not write a unit.

Worked examples follow.
>>> print(df.to_string())
                       residue_string                                       tgt  value_reported
0  ATCTCTAGGTAACCAAGTTTAGTGAATGCCGAAC  LXRb:RXRa (NR concentration 270 nM, RXRa partner concentration 90 nM)           0.275
1  CGAACGAGGGCATGAGTTGATTGCAAATGCCGAT  LXRb:RXRa (NR concentration 270 nM, RXRa partner concentration 90 nM)         -0.0625
2  GCTCGGAGGACAAGGTCAGAGCGTTGTCCGTAGA  LXRb:RXRa (NR concentration 270 nM, RXRa partner concentration 90 nM)            1.46

Next sequence, please.
Task: Form entry - test system: LXRb:RXRa (NR concentration 270 nM, RXRa partner concentration 90 nM); read-out: PBM binding z-score; sequence: ATCGAAAGGTCGTAAGGTGAGTATACAGAAAGGC
Result: 2.98

* * *

tested on: PPARa:RXRa (NR concentration 270 nM, RXRa partner concentration 90 nM); assay: PBM binding z-score (relative to random genomic background probes); higher = stronger binding; sequences stand for … in GC…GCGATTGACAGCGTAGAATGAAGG
Recorded PBM binding z-score for the following sequences
# output: bare number, no unit

Worked set:
                       residue_string                                       tgt   measured_parameter  value_reported
0  TCTATAAGTTGATTAGGGCAACCGAAACAGCGGA  PPARa:RXRa (NR concentration 270 nM, RXRa partner concentration 90 nM)  PBM binding z-score            1.13
1  AGAATGAGGTTATACGTAGATCAGGTAAGAAAGT  PPARa:RXRa (NR concentration 270 nM, RXRa partner concentration 90 nM)  PBM binding z-score            3.17

Would you kindly look at the next entry?
Task: What value of PBM binding z-score has been reported for the following sequence? ATATGTAGGTTAGTTGGGGTCATTCAGACTAGGC
Result: 5.47

* * *

tested on: RARa:RXR (NR concentration 270 nM, RXRa partner concentration 90 nM); test: PBM binding z-score (relative to random genomic background probes); higher = stronger binding; sequences stand for … in GC…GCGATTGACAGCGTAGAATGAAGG
MEASURED_PARAMETER: PBM binding z-score
Give your answer as a number; write no unit.

# count of solved cases: 3
                       residue_string   measured_parameter  value_reported
0  GCTCGGAGGACAAGGTCAGACCTTTGTCCGTAGA  PBM binding z-score            2.61
1  CAACCTAGGTCAGGGCCAGTATAGGAGGAACGTT  PBM binding z-score            1.45
2  ATCGAATGGTCGACGAGGTGAGTATACACCGTTT  PBM binding z-score          -0.136

# evaluate next
Task: Any idea what PBM binding z-score was measured for CCTACTGGGCCACGAAAGGTCGTTGATTCAGTGA ?
Result: 2.19

* * *

# PBM binding z-score annotations
system: RARg homodimer (NR concentration 270 nM); test: PBM binding z-score (relative to random genomic background probes); higher = stronger binding; sequences stand for … in GC…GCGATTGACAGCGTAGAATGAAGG
API note: the answer field is a bare number with no unit suffix.

Previously resolved entries follow.
In [3]: df
Out[3]:
                       residue_string  value_reported
0  CGACCAAGGTCAATGCTAGGTCAGTGAAAGCATT            6.84
1  TAGCCTAGGTCACTCAGGGGCCAGTATAGAAAGC            5.25
2  AGTCAAAGTTCAGGACGAGGTATCGTAAAGCACG            4.67

Task: State the recorded PBM binding z-score for this entry: ATATGTAGGTTATCGGGTGATTCAGTTTGCGCAT
Result: 0.751

Task: // query: CGTCCAAGGTCAGCAGATCAGTGAAAGCGACGTG
Result: 5.8

Task: Record: ATCGAAAGCTCGACGAGGTGAGTATACACCGTTT
Result: 0.303

Task: Param item: TCTAGCAGGCCAGAGGGTCAATCAAGAGGTACGG
Result: 2.14

Task: Same again, this time with GCAGACAGGTGAAACGCAGGTAACCCAGGGTGGC
Result: 0.468

Task: Query CCTGCTAGGTCATGGACAGCTAATCTACAGTATG next
Result: 4.68

Task: Please do the same for ACTTACGGGTCAACGAGGTTATATCACGCGTATA as well.
Result: 4.95

Task: Try this sequence next: CATACAGGGTCAGCTAGGCCAGAGTGGGGACGGC
Result: 4.75

Task: Also GCGACTGGGGCATCAGCAGGTTACCCTAACTTAA , if possible.
Result: 0.106

Task: Here is the next sequence: CGTCCAAGGTCAGCAGGTCAGTTAAAGCGACGTG
Result: 7.2

Task: Consider next the sequence ACTTACGGGTCAACGAGGTGATAGCACGCGTATA in the same way.
Result: 4.83

Task: Similarly, ATCTGTAGGTTAGCTGGGGTCATTCAGACTAGGC ?
Result: 3.04

Task: Likewise for TCATATAGGTAAAGGAGAAAGTCGAACGATATGA ?
Result: 0.358

Task: // query: AGAATGAGGTTATTAAGATGAGGGAATTGCGGTC
Result: 0.922

Task: Entry TCTATGAGTTGAAGGGCAACCGACGAGTCCGTTT please
Result: 0.461

Task: What do you have for TCTAGTTGGTCTCGGAGGTCACACACGACGGGTA ?
Result: 3.47

Task: TCTATTAGTTGAAGGGCAAGCGACGAGTCCGTTT ?
Result: 0.708

* * *

tested on: PPARg:RXRa 90nM:30nM, anti-RXR (NR concentration 90 nM, RXRa partner concentration 30 nM); assay: PBM binding z-score (relative to random genomic background probes); higher = stronger binding; sequences stand for … in GC…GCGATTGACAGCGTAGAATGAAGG
Entry flag: True if PBM binding z-score reaches 2; False if it does not.

In [3]: df
Out[3]:
                       residue_string  class
0  AGAATGAGGTTACCAATGATCAGGGAAACGCTTG  False

Task: Is reported PBM binding z-score greater than or equal to 2 here: CGTCAAAGTTCAAGGGAACGTAACAGAAAGCAGC
Result: True

Task: Also check AATACAGCGTCACTAGGCCAGAGTAGGTACGAAT
Result: False

* * *

test system: FXR:RXRa (NR concentration 270 nM, RXRa partner concentration 90 nM); test: PBM binding z-score (relative to random genomic background probes); higher = stronger binding; sequences stand for … in GC…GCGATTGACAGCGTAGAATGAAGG
Label Yes when PBM binding z-score is at or above 0.9; otherwise label No.

Sample answers from the record:
In [3]: df
Out[3]:
                       residue_string  class
0  TAGCCTAGGTCAGATCGGGCTAGTATACGCTATA    Yes
1  ATCTCTGGGTAACCAAGTTCAGTGAATGCCGAAC     No
2  CCTCGTTGGTCAAGGTCACACACGCTATAGGTAC    Yes
3  AGAGTGAGGTTATACGTAGATCAGGGAAGAAAGT    Yes
4  TCTTGTAGATCAGCAGGTTAAGCAAGCTGGCCAA     No
5  CCTCGGAGGACAACAGGGGGTCAGAGCTGCCAGA    Yes
6  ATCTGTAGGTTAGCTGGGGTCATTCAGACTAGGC    Yes
7  TTACCAAGCTGAGCTGAGGTCGTTGATCCAACTC     No
8  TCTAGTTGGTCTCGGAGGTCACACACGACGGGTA    Yes
9  CCGACTGGGGCATAAGGTTACCACAAGCCAGCCC     No

Task: Decide: PBM binding z-score of AATACAGGGTCAGCGTAGGCCAGAGTACGCACAG >= 0.9?
Result: Yes

Task: Proceed to AGAATGAGGTTATTAAGATCATGGAATTGCGGTC
Result: Yes

Task: Cool, now TCTTGTAGGTCAACAGGAGGTTAAGAAAGATCGA
Result: Yes

Task: Here is the next sequence: TCATATAGGTAACTGCTAGGTGAAAGTCCGATCT
Result: Yes

Task: Thanks! And GCTGCTAGGTCAACTGATGGTCTGCTAAAGCTCG ?
Result: Yes

Task: Proceed to ATCTCTAGGTAAAGATAGTTCAGCGAATGCAAAT
Result: No

Task: Repeat with TCAGACAGGTGAAGGTAACTCAGGTACGCAGTCG
Result: Yes

Task: Consider next the sequence CGAACTAGGTCATTGACAGGAAAGTGAATAGTAA in the same way.
Result: Yes

Task: Note, next up: TCTTGTAGATCAATAGAGGTTAAGATAGTGCGCT
Result: Yes

Task: Query TATCGGAGGACACGAAAGGTCAGAGCTCGACATC next
Result: Yes

Task: Can you handle GCAGACAGGTGAAACGCAGGTACCTCAGGGTGGC next?
Result: No
